assay: Volume of distribution at steady state in Sprague-Dawley rat at 10 mg/kg, iv administered as single bolus dose by HPLC-MS/MS analysis; format: ADME, organism-based; conditions: in vivo, read-out: Vdss
Metric name: Vd (L/kg)
Unit L/kg implied. Number only.

INPUT: Consider the molecule "O=C(Nc1ccc(CP(=O)(O)O)cc1)C1CCN(C(=O)OCc2cc(Cl)cc(Cl)c2)CC1" and give its measured Vd.
OUTPUT: 0.33

###

target: Autotaxin (Homo sapiens); test: Inhibition of ENPP2 in human A2058 cells using LPC as substrate preincubated for 15 mins followed by substrate addition measured after 3 hrs by LC-MS/MS analysis; type: cell-based
Metric name: pIC50
Quick note: pIC50 means taking -log10 of the concentration in moles per liter.

INPUT: Consider the compound "O=C(Nc1ccc(CP(=O)(O)O)cc1)C1CCN(C(=O)OCc2cc(Cl)cc(Cl)c2)CC1" and give its measured pIC50.
OUTPUT: 8.89

###

assay: Tmax in Sprague-Dawley rat at 20 mg/kg, iv administered as single bolus dose by HPLC-MS/MS analysis; assay type: ADME, organism-based; conditions: in vivo
Metric name: Tmax (min)
Unit min implied. Number only.

INPUT: Consider the molecule "O=C(Nc1ccc(CP(=O)(O)O)cc1)C1CCN(C(=O)OCc2cc(Cl)cc(Cl)c2)CC1" and give its measured Tmax.
OUTPUT: 1.2

###

test: Cmax in Sprague-Dawley rat at 2 mg/kg, iv administered as single bolus dose by HPLC-MS/MS analysis; format: ADME, organism-based; parameters: dose 2 mg/kg, route intravenous; conditions: in vivo
Metric name: Cmax

INPUT: Consider the compound "O=C(Nc1ccc(CP(=O)(O)O)cc1)C1CCN(C(=O)OCc2cc(Cl)cc(Cl)c2)CC1" and give its measured Cmax.
OUTPUT: 33100 ng/mL

###

assay: AUC in Sprague-Dawley rat at 2 mg/kg, iv administered as single bolus dose by HPLC-MS/MS analysis; format: ADME, organism-based; conditions: in vivo
Metric name: AUC (ng·h/mL)
Unit ng·h/mL implied. Number only.

INPUT: Consider the compound "O=C(Nc1ccc(CP(=O)(O)O)cc1)C1CCN(C(=O)OCc2cc(Cl)cc(Cl)c2)CC1" and give its measured AUC.
OUTPUT: 3050

###

molecular target: Autotaxin (Homo sapiens, UniProt Q13822); assay: Inhibition of ENPP2 in human SKHEP1 cells using LPC as substrate preincubated for 15 mins followed by substrate addition measured after 3 hrs by LC-MS/MS analysis; format: cell-based
Metric name: pIC50
Quick note: pIC50 means taking -log10 of the concentration in moles per liter.

INPUT: Consider the compound "O=C(Nc1ccc(CP(=O)(O)O)cc1)C1CCN(C(=O)OCc2cc(Cl)cc(Cl)c2)CC1" and give its measured pIC50.
OUTPUT: 8.10

###

test: Terminal half life in Sprague-Dawley rat at 10 mg/kg, iv administered as single bolus dose by HPLC-MS/MS analysis; type: ADME, organism-based; conditions: in vivo, read-out: beta t1/2 (converted)
Metric name: half-life (min)
Unit min implied. Number only.

INPUT: Consider the compound "O=C(Nc1ccc(CP(=O)(O)O)cc1)C1CCN(C(=O)OCc2cc(Cl)cc(Cl)c2)CC1" and give its measured half-life.
OUTPUT: 42.6

###

test: Metabolic stability in human liver microsomes assessed as parent compound remaining at 5 uM preincubated for 10 mins followed by NADPH addition measured after 60 mins by LC-MS/MS analysis; type: ADME, microsome; conditions: read-out: Stability
Metric name: remaining at 1 h, 5 µM

INPUT: Consider the molecule "O=C(Nc1ccc(CP(=O)(O)O)cc1)C1CCN(C(=O)OCc2cc(Cl)cc(Cl)c2)CC1" and give its measured remaining at 1 h, 5 µM.
OUTPUT: > 99.9%

All values here come from ChEMBL document CHEMBL4196035.
